Please provide measured pIC50 for the entries that follow.
Biological target: CDK12 complexed with Cyclin K (Homo sapiens, UniProt Q9NYV4)
Construct: GST (N)
Sequence (Q9NYV4 whole entry): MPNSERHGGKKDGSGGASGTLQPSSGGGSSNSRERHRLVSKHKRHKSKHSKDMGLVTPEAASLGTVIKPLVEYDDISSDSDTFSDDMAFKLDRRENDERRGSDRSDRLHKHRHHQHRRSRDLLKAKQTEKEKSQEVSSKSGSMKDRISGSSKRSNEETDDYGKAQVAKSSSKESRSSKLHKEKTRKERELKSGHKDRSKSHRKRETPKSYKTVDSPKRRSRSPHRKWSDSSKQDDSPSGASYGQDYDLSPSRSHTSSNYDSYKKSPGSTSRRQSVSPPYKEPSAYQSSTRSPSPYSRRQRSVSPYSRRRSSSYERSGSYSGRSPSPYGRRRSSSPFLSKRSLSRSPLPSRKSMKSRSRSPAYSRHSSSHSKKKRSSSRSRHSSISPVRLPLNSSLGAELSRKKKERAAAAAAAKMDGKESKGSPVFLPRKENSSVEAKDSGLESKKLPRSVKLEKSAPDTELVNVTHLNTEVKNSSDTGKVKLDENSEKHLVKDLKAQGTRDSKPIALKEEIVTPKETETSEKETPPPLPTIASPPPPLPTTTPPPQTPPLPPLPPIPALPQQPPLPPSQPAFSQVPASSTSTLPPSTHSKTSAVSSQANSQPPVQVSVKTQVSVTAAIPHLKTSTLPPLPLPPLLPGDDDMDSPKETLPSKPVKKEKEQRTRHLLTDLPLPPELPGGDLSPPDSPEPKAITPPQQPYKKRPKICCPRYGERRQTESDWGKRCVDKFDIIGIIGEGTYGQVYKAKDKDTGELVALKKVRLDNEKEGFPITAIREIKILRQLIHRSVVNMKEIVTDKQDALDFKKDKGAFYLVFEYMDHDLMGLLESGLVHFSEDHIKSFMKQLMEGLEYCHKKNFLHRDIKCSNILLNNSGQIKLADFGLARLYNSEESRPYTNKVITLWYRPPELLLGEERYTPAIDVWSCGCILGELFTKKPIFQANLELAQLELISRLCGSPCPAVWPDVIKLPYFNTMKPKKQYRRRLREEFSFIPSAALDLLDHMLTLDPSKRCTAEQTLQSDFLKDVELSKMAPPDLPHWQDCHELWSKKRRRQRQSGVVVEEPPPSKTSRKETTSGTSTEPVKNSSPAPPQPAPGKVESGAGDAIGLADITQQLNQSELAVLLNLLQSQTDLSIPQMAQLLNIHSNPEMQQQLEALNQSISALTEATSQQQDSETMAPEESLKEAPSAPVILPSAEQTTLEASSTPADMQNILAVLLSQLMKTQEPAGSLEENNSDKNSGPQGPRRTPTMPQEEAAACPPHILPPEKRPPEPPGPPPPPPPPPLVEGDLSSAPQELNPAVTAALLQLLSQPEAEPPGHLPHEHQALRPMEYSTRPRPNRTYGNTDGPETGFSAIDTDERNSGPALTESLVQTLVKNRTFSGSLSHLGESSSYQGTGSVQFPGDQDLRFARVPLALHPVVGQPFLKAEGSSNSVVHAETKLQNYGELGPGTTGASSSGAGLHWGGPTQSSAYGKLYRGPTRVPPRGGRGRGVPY
Sequence (O75909 whole entry partner): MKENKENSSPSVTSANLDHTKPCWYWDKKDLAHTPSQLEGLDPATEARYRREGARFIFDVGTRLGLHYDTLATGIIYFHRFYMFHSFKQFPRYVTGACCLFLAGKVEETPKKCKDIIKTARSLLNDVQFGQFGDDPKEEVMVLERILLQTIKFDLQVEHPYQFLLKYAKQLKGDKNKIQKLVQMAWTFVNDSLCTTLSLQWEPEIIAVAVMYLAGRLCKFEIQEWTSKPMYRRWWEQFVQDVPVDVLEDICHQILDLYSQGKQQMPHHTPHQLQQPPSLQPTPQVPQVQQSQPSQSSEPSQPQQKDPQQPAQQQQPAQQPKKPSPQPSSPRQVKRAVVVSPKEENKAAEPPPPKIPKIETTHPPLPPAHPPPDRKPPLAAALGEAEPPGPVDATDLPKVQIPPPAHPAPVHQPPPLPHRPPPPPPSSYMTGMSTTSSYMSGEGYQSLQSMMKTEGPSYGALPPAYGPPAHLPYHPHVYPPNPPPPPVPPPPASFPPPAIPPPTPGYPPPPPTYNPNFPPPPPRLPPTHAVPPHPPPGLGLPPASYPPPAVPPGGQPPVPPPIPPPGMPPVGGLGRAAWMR
Experiment: CDK enzymatic assay (HTRF, LANCE Ultra kinase assay)
Conditions: 60 minutes pre-incubation with compound; 1 mM ATP
pIC50: −log10 of the molar value.

Item C=CC(=O)Nc1ccc(C(=O)N2CCC[C@@H](Nc3nc4cnc(-c5cn[nH]c5)c(OC(C)C)n4n3)C2)c(F)c1 [Example 4] : provide pIC50
> 7.30

Indicate the recorded pIC50 value for this molecule: C=CC(=O)Nc1ccc(C(=O)N2CC[C@@H](Nc3nc4ccc(-c5cnco5)cn4n3)C2)cc1 [Example 20]
> 7.30

// Input: C=CC(=O)Nc1ccc2c(c1)C(=O)N([C@H]1CCC[C@@H](Nc3nc4ccc(-c5cn[nH]c5)c(C)n4n3)C1)C2 [Example 22] . Output its pIC50 only.
> 7.30

Identify the reported pIC50 for the following entry. C=CC(=O)Nc1ccc2c(c1)C(=O)N([C@H]1CCC[C@@H](Nc3nc4ccc(-c5cn[nH]c5)c(N5CCCCC5)n4n3)C1)C2 [Example 21]
> 7.30

State its pIC50: CC#CC(=O)Nc1ccc(C(=O)N2CC[C@@H](Nc3nc4c(C)c(-c5cn[nH]c5)ccn4n3)C2)cc1 [Example 33]
> 7.30

Input C=CC(=O)Nc1ccc(C(=O)N2CC(Nc3nc4c(OC)c(-c5cn[nH]c5)ncn4n3)C2)cc1 [Example 3] , output reported pIC50.
> 7.30

Return value of pIC50 for input C=CC(=O)Nc1ccc(C(=O)N2CCC(Nc3nc4c(OC)c(-c5cn[nH]c5)ncn4n3)CC2)cc1 [Example 2] , no commentary.
> 7.30

Output measured pIC50 for this item: C=CC(=O)Nc1ccc(C(=O)N2CCC[C@@H](Nc3nc4cnc(-c5cn[nH]c5)c(OC5CC(F)(F)C5)n4n3)C2)cc1 [Example 10]
> 7.30

Input C=C(F)C(=O)Nc1ccc(C(=O)N2CC[C@@H](Nc3nc4cc(-c5cn[nH]c5)ccn4n3)C2)cc1 [Example 31] , output reported pIC50.
> 7.30

// fetch pIC50 given entry C=CC(=O)Nc1ccc(C(=O)N2CCC[C@@H](Nc3nc4ccc(-c5cn[nH]c5)c(N5CCC(F)(F)CC5)n4n3)C2)cc1 [Example 13]
6.30 to 7.30

Input C=CC(=O)Nc1ccc2c(c1)C(=O)N([C@H]1CCC[C@@H](Nc3nc4ccc(-c5cn[nH]c5)c(C(F)(F)F)n4n3)C1)C2 [Example 34] , output reported pIC50.
> 7.30
